From: patent US20240092922A1

# tested-target: T1, Histidine-tagged human 4-1BB protein (h4-1BB-His) (human, UniProt Q07011 24-186)
# T1 construct: not shown: histidine tag
# method-summary: SPR (Biacore T200), antibody on Protein A chip, h4-1BB-His injected;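 also: dissociation phase followed for 300 s, Kd derived as koff divided by kon from the kinetic fit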
Please respond with label 1 when measured Kd is strictly beneath 20 nM, and with label 0 in all other cases.

>  <binder>
29-6A5-mHvKv-IgG2 (antibody, V domains shown) VH: QVQLQQPGAELVRPGASVKLSCKASGYTFSSYWINWVKQRPGQGLEWIGNIYPSDSYTNYNQKFKDKATLTVDKSSSTAYMQLSSPTSDDSAVYYCTRTWEFYYDSVFDYWGQGTTLTVSS VL: DIKMTQSPSSMYASLGERVTITCKASQDINSYLSWFQQKPGKSPKTLIYRANRLVDGVPSRFSGSGSGQDYSLTISSLEYEDMGIYYCLQYDELPPTFGGGTKLEIK

>  <classification>
label 1

$$$$
>  <binder>
6A5-H2K1-IgG2 (antibody, V domains shown, humanized) VH: QVQLVQSGAEVKKPGSSVKLSCKASGYTFSSYWINWVRQAPGQGLEWIGNIYPSDSYTNYNQKFKDRATLTVDKSTSTAYMELSSLRSEDTAVYYCTRTWEFYYDSVFDYWGQGTLVTVSS VL: DIQMTQSPSSLSASLGERVTITCKASQDINSYLSWYQQKPGKAPKLLIYRANRLVDGVPSRFSGSGSGQDFTLTISSLQPEDIATYYCLQYDELPPTFGGGTKVEIK

>  <classification>
label 1

$$$$
>  <binder>
59-5E4-mHvKv-IgG2 (antibody, V domains shown) VH: QVQLQQPGAELVRPGASVKLSCKASGYTFTTYWINWVRQRPGQGLEWIGNIYPSDSYTNYNQKFKDKASLTVDKSSNTAYMQLSSPTSEDSAVYYCAREAGDGTHYYAIDYWGQGTSVTVSS VL: NIVMTQSPKSMSMSVGERVTLSCKASENVGTYVSWYQQKPEQSPKLLIYGASNRYPGVPDRFTGSGSATDFTLTISSLQAEDLADYHCGQGYSYLRTFGGGTNLEIK

>  <classification>
label 1

$$$$
>  <binder>
1C4-H3K2-IgG4 (antibody, V domains shown, humanized) VH: QVQMVQSGAEVKKPGASVKLSCKASGFTFSSSYINWLRQAPGQSLEWIGWIFAGTGGTYYNQKFTGRAQITRDTSASTAYMELSSLRSEDTAIYYCARHSPRATLFDFWGQGTTLTVSS VL: EIVLTQSPATLSLSPGERATLSCRASSSVNHMHWYQQKPGQAPRALIYATSNLASGIPARFSGSGSGTSFTLTISSLEPEDFATYYCQQWSSNPYTFGGGTKLEIK

>  <classification>
label 1

$$$$
>  <binder>
1C4-H4K3-IgG4 (antibody, V domains shown, humanized) VH: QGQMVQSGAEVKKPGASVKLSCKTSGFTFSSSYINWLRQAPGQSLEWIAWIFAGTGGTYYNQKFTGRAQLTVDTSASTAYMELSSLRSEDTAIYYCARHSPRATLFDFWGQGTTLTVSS VL: EIVLTQSPATLSLSPGERATMSCRASSSVNHMHWYQQKPGFSPRAWIYATSNLASGIPARFSGSGSGTSFTLTISSLEPEDFATYYCQQWSSNPYTFGGGTKLEIK

>  <classification>
label 1

$$$$
>  <binder>
5F9-H3K1-IgG4 (antibody, V domains shown, humanized) VH: QVQLKESGPGLVKPSETLSITCTVSGFSLTTYDISWVRQPPGKGLEWLGVIWTGGGTNYNSSFMSRVTISKDNSKNQVSLKLSSVTAADTAIYYCERVDYWGQGTTLTVSS VL: DVVMTQSPLSLPVTLGQPASISCRSSQSLVHSNGNTYLHWFQQRPGQSPRLLIYKVSNRFSGVPDRFSGSGSGTAFTFKISRVEAEDVGVYYCSQNTHVPWTFGGGTKVEIK

>  <classification>
label 1

$$$$
>  <binder>
1C4-H1K4-IgG4 (antibody, V domains shown, humanized) VH: QVQMVQSGAEVKKPGASVKLSCKASGFTFSSSYINWLRQAPGQRLEWMGWIFAGTGGTYYNQKFTGRVTITRDTSASTAYMELSSLRSEDTAIYYCARHSPRATLFDFWGQGTTLTVSS VL: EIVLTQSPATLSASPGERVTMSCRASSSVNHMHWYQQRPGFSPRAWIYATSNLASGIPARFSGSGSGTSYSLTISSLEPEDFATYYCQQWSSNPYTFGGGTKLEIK

>  <classification>
label 0

$$$$
>  <binder>
1C4-H1K3-IgG4 (antibody, V domains shown, humanized) VH: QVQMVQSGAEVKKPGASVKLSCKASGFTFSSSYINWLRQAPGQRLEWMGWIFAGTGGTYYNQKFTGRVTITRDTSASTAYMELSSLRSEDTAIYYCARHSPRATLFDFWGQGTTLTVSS VL: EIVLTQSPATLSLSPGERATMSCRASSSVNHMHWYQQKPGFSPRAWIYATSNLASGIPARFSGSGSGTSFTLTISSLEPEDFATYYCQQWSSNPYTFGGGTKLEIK

>  <classification>
label 0

$$$$
>  <binder>
1C4-H2K3-IgG4 (antibody, V domains shown, humanized) VH: QVQMVQSGAEVKKPGASVKLSCKASGFTFSSSYINWLRQAPGQSLEWIGWIFAGTGGTYYNQKFTGRVQITRDTSASTAYMELSSLRSEDTAIYYCARHSPRATLFDFWGQGTTLTVSS VL: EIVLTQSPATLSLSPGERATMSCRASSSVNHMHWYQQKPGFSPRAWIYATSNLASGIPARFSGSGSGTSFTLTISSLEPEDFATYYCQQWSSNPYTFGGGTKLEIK

>  <classification>
label 1

$$$$
